Test: chemical genetic growth profiling, strain panel (AID 1159580);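 also: tested at 20 µM; growth read once vehicle control cultures reached saturation at 30 °C; lower values mean less growth of the strain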
Settings: S. cerevisiae deletion strains, growth OD, locus YCR088W, strain abp1
The whole screen tested about 5,500 compounds, of which about 2,000 (36%) were called active. Not shown: some 18% with an inconclusive outcome. Rule as the data show it: active = normalized growth mostly below about 0.91 (no sharp cut-off); inconclusive = no clear call, values can overlap the other calls; inactive = mostly above about 0.92. This is one part of the list.
Outcome (select one): t = active, f = inactive

Consider the worked cases shown below.
CC1(C)S[C@@H]2C(N3C(=O)[C@@H](c4ccccc4)NC3(C)C)C(=O)N2[C@H]1C(=O)O (stereo partly drawn); f
COc1ccc(-c2cc(=O)c3c(OC)c(OC)c(OC)c(OC)c3o2)cc1OC; f

Ask: Hi, do you know how `COc1cc(-c2cc(=O)c3c(O)c(OC)c(OC)c(OC)c3o2)cc(OC)c1OC` came out in this test?
Result: f

Ask: Similarly, `CN[C@H]1CC[C@@H](c2ccc(Cl)c(Cl)c2)c2ccccc21` ?
Result: f
